Just for reference, patent US7803792B2 is where these values come from.

Entries and their pIC50 values follow.
molecular target: human IBAT (Homo sapiens, UniProt Q12908); assay: In vitro assay of temporarily expressed human IBAT transporter using Cos 7 cells (Test Example 8); conditions: Cos 7 cells temporarily expressing human IBAT; [3H] taurocholate 8 μM, 37° C., 60 minutes
Note on pIC50: it is the negative log10 of concentration, concentration in mol/L.

In the examples that follow, each entry is paired with its recorded pIC50.
Enquiry: # query: pIC50 of entry CCCCC1(CCCC)CS(=O)(=O)c2ccc(N(C)C)cc2C(c2cccc(NC(=S)Nc3ccc(C[n+]4ccccc4C)cc3)c2)N1 (stereo not drawn)
Return: 7.28

Enquiry: // returns reported pIC50 for input CCCCC1(CCCC)CS(=O)(=O)c2ccc(N(C)C)cc2C(c2cccc(NC(=S)Nc3ccc(C[N+](C)(C)CCOC(=O)c4ccccc4)cc3)c2)N1 (stereo not drawn)
Return: 7.15

Enquiry: Entry CCCCC1(CCCC)CS(=O)(=O)c2ccc(N(C)C)cc2C(c2cccc(NC(=S)CCCCC[N+]34CCC(CC3)CC4)c2)N1.[Br-] (stereo not drawn) has what pIC50?
Return: 7.60

Enquiry: Could you share which pIC50 value was measured for CCCCC1(CCCC)CS(=O)(=O)c2ccc(N(C)C)cc2C(c2cccc(NC(=S)Nc3cccc(C[N+](C)(CCC)CCC)c3)c2)N1 (stereo not drawn) ?
Return: 7.11

---
Enquiry: So what does the record say about pIC50 for CCCCC1(CCCC)CS(=O)(=O)c2ccc(N(C)C)cc2C(c2cccc(NC(=S)Nc3cccc(C[n+]4cc(C)cc(-c5ccccc5)c4)c3)c2)N1 (stereo not drawn) ?
Return: 7.14

Enquiry: State the recorded pIC50 for this entry: CCCCC1(CCCC)CS(=O)(=O)c2ccc(N(C)C)cc2C(c2cccc(NC(=S)Nc3ccc(C[n+]4cccc(CCCO)c4)cc3)c2)N1.[Br-] (stereo not drawn)
Return: 7.35

Enquiry: Would you kindly share the measured pIC50 for CCCCC1(CCCC)CS(=O)(=O)c2ccc(N(C)C)cc2C(c2cccc(NC(=S)Nc3ccc(C[n+]4ccc(CCc5ccncc5)cc4)cc3)c2)N1 (stereo not drawn) ?
Return: 7.10

Enquiry: Given CCCCC1(CCCC)CS(=O)(=O)c2ccc(N(C)C)cc2C(c2cccc(NC(=S)Nc3ccc(C[n+]4ccc5ccccc5c4)cc3)c2)N1.[Br-] (stereo not drawn) , state its recorded pIC50.
Return: 7.32

Enquiry: Could you share which pIC50 value was measured for CCCCC1(CCCC)CS(=O)(=O)c2ccc(N(C)C)cc2C(c2cccc(NC(=S)Nc3ccc(C[n+]4cccc5ccccc54)cc3)c2)N1 (stereo not drawn) ?
Return: 7.14

Enquiry: # pIC50 lookup, item C=CC[N+](C)(C)Cc1ccc(NC(=S)Nc2cccc(C3NC(CCCC)(CCCC)CS(=O)(=O)c4ccc(N(C)C)cc43)c2)cc1 (stereo not drawn)
Return: 7.26

Enquiry: Any idea what pIC50 was measured for CCCCC1(CCCC)CS(=O)(=O)c2ccc(N(C)C)cc2C(c2cccc(NC(=S)Nc3cccc(C[n+]4ccc5ccccc5c4)c3)c2)N1 (stereo not drawn) ?
Return: 7.11

Enquiry: Data request, read-out pIC50, for CCCCC1(CCCC)CS(=O)(=O)c2ccc(N(C)C)cc2C(c2cccc(NC(=S)Nc3cccc(C[N+](C)(C)CCc4ccccc4)c3)c2)N1 (stereo not drawn)
Return: 7.17

Enquiry: Param item = CCCCC1(CCCC)CS(=O)(=O)c2ccc(N(C)C)cc2C(c2cccc(NC(=S)Nc3ccc(C[n+]4ccc(-c5ccccc5)cc4)cc3)c2)N1 (stereo not drawn) ; retrieve measured pIC50.
Return: 7.52

Enquiry: What value of measured pIC50 is listed for CCCCC1(CCCC)CS(=O)(=O)c2ccc(N(C)C)cc2C(c2cccc(NC(=S)Nc3ccc(C[n+]4cc(C)cc(-c5ccccc5)c4)cc3)c2)N1 (stereo not drawn) ?
Return: 7.08

Enquiry: So what does the record say about pIC50 for CCCCC1(CCCC)CS(=O)(=O)c2ccc(N(C)C)cc2C(c2cccc(NC(=S)Nc3cccc(C[N+]4(Cc5ccccc5)CCC(CCO)CC4)c3)c2)N1 (stereo not drawn) ?
Return: 7.05

Enquiry: GET /values?readout=pIC50&item= CCCCC1(CCCC)CS(=O)(=O)c2ccc(N(C)C)cc2C(c2cccc(NC(=S)Nc3ccc(C[N+](C)(C)C(C)c4ccccc4)cc3)c2)N1 (stereo not drawn)
Return: 7.07

Enquiry: # input compound: CCCCC1(CCCC)CS(=O)(=O)c2ccc(N(C)C)cc2C(c2cccc(NC(=S)Nc3ccc(C[N+](C)(C)Cc4ccccc4)cc3)c2)N1.[Br-] (stereo not drawn) ; wanted: its pIC50
Return: 7.43

Enquiry: Given the entry CCCCC1(CCCC)CS(=O)(=O)c2ccc(N(C)C)cc2C(c2cccc(NC(=S)Nc3cccc(C[N+]45CCN(CC4)CC5)c3)c2)N1 (stereo not drawn) , report its measured pIC50.
Return: 7.01

Enquiry: Look up pIC50 for this compound: CCCCC1(CCCC)CS(=O)(=O)c2ccc(N(C)C)cc2C(c2cccc(NC(=S)Nc3cccc(C[n+]4ccc(CC)cc4)c3)c2)N1 (stereo not drawn)
Return: 7.14

Enquiry: So what's the measured pIC50 for this one? CCCCC1(CCCC)CS(=O)(=O)c2ccc(N(C)C)cc2C(c2cccc(NC(=S)Nc3ccc(C[n+]4ccc(C)cc4)cc3)c2)N1.[Br-] (stereo not drawn)
Return: 7.31

Enquiry: Look up pIC50 for this compound: CCCCC1(CCCC)CS(=O)(=O)c2ccc(N(C)C)cc2C(c2cccc(NC(=S)Nc3cccc(C[N+]4(CC)CCCCC4)c3)c2)N1 (stereo not drawn)
Return: 7.21

Enquiry: What does the data say about its pIC50? Entry: CCCCCCOC(=O)c1ccc[n+](Cc2ccc(NC(=S)Nc3cccc(C4NC(CCCC)(CCCC)CS(=O)(=O)c5ccc(N(C)C)cc54)c3)cc2)c1 (stereo not drawn)
Return: 7.12

Enquiry: For the compound CCCCC1(CCCC)CS(=O)(=O)c2ccc(N(C)C)cc2C(c2cccc(NC(=S)Nc3cccc(C[N+]4(C)CCN(C)CC4)c3)c2)N1 (stereo not drawn) , what pIC50 is on record?
Return: 7.11

Enquiry: Would you mind telling me what pIC50 value was observed for CCCCC1(CCCC)CS(=O)(=O)c2ccc(N(C)C)cc2C(c2cccc(NC(=S)Nc3ccc(C[N+]45CCC(CC4)C(O)C5)cc3)c2)N1 (stereo not drawn) ?
Return: 7.16

---

Reported pIC50 values for the following molecules.
Molecular target: human IBAT (Homo sapiens)
Sequence (Q12908 1-348): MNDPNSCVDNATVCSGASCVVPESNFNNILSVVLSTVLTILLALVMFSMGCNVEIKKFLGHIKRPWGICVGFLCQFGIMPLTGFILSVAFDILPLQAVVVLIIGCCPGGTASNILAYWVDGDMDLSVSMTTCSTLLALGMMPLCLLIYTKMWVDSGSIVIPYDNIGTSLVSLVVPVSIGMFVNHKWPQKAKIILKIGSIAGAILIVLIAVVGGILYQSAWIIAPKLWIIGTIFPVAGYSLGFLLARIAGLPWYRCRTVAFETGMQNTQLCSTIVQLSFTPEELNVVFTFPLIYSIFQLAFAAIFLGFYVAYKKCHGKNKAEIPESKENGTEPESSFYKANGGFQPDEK
Assay: In vitro assay of temporarily expressed human IBAT transporter using Cos 7 cells (Test Example 8)
Details: Cos 7 cells temporarily expressing human IBAT; [3H] taurocholate 8 μM, 37° C., 60 minutes
Method: In Vitro Assay of Compounds Which Inhibit Temporarily Expressed Human IBAT Transporter or Rat IBAT Transporter Using Cos 7 Cells […] That is, […] Cos 7 were inoculated on a 24-well cell plate. […] Measurement of radioactivity was carried out by introducing the cell lyzate in 4 ml of liquid scintillation cocktail, stirring the mixture well, and then measuring the radioactivity by a scintillation counter.
Scale explanation: pIC50 corresponds to minus log10 of a concentration expressed in moles per litre.

Enquiry: State the recorded pIC50 for this entry: CCCCC1(CCCC)CS(=O)(=O)c2ccc(N(C)C)cc2C(c2cccc(NC(=S)Nc3ccc(C[n+]4ccccc4)cc3)c2)N1 (stereo not drawn) [Example 3708]
Return: 7.15

Enquiry: What pIC50 value was documented for this molecule, CCCCC1(CCCC)CS(=O)(=O)c2ccc(N(C)C)cc2C(c2cccc(NC(=S)CCCCC[N+]34CCC(CC3)C(O)C4)c2)N1 (stereo not drawn) [Example 3854] ?
Return: 7.55

Enquiry: What value of pIC50 has been reported for the following molecule? CCCCC1(CCCC)CS(=O)(=O)c2ccc(N(C)C)cc2C(c2cccc(NC(=S)Nc3ccc(CC[N+]45CCC(CC4)CC5)cc3)c2)N1 (stereo not drawn) [Example 5298]
Return: 7.12

Enquiry: Need pIC50 of CCCCC1(CCCC)CS(=O)(=O)c2ccc(N(C)C)cc2C(c2cccc(NC(=S)Nc3ccc(C[n+]4c(C)cc(C)cc4C)cc3)c2)N1 (stereo not drawn) [Example 5409] , thanks.
Return: 7.38

Enquiry: What value of pIC50 has been recorded for this entry: CCCCC1(CCCC)CS(=O)(=O)c2ccc(N(C)C)cc2C(c2cccc(NC(=S)Nc3ccc(C[n+]4cccc(F)c4)cc3)c2)N1 (stereo not drawn) [Example 5416]
Return: 7.11

Next up:
Enquiry: Look up pIC50 for this molecule: CCCCCC[N+](C)(C)Cc1ccc(NC(=S)Nc2cccc(C3NC(CCCC)(CCCC)CS(=O)(=O)c4ccc(N(C)C)cc43)c2)cc1 (stereo not drawn) [Example 3410]
Return: 7.17
